- study-target: T1, cynomolgus SIRPα extracellular domain + His-tag (EGM_02252) (cynomolgus monkey)
- T1 construct: also called CySIRPα EGM_02252; cynoSIRPα
- T1 chain: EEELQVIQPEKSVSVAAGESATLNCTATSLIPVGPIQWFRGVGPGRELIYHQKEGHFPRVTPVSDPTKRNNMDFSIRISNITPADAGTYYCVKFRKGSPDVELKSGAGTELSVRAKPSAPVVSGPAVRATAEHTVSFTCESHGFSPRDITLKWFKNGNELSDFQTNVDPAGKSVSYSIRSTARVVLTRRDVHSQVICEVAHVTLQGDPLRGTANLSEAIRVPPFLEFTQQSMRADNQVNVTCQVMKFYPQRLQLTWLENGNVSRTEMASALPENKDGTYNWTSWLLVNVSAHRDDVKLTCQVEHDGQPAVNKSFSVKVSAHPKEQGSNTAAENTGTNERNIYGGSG
- test-method-notes: SPR, Ab captured, ECD-His analyte
property: pKd
Answers are plain numbers, as −log10 of the molar value.

Just so you know, measured pKd for Antibody A13 (antibody, human IgG1, kappa, L234A L235A, V domains shown) VH: EVQLVESGGGLVQPGGSLRLSCAASGFTLSSYDMHWVRQAPGKGLEWVSAIGTAGDTYYTGSVKGRFTISRENAKNSLYLQMNSLRAADTAVYYCVRGGVWDDAFDIWGQGTMVTVSS VL: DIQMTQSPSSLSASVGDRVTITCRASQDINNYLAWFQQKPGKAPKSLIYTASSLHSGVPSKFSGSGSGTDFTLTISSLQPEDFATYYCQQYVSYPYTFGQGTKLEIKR came out at 6.65

Values from patent US20230012273A1
